biological target: human CD33 variant P48F (human, UniProt P20138 18-364); assay: flow cytometry, IgG on cells expressing the mutant
Sequence (P20138 18-364 P48F limits assumed): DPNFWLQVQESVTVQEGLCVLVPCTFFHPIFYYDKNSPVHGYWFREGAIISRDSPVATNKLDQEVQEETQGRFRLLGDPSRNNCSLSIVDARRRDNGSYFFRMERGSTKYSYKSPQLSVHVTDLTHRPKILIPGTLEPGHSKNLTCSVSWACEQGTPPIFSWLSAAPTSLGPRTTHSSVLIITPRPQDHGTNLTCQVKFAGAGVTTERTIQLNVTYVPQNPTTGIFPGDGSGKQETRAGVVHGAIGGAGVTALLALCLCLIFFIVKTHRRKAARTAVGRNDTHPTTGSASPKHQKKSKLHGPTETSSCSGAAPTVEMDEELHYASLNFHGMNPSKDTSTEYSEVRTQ
Documented Mean % WT Binding across a set of binders
assayEndpoint: Mean % WT Binding

binder: Refmab #3 (antibody, human IgG1, V domains shown, Tested in IgG format; human IgG1 Fc silent (PG-LALA)) VH: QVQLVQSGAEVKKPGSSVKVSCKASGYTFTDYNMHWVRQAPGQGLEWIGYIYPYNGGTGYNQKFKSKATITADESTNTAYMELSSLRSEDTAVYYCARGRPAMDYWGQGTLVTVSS VL: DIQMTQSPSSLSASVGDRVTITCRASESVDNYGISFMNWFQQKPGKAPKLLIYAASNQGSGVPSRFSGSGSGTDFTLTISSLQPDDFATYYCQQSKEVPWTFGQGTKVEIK
assayValue: 100 % of WT
//
binder: Refmab #2 (antibody, human IgG1, V domains shown, Tested in IgG format; human IgG1 Fc silent (PG-LALA)) VH: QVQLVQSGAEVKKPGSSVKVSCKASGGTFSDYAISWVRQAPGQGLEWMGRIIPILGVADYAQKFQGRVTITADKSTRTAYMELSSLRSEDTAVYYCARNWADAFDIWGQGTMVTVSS VL: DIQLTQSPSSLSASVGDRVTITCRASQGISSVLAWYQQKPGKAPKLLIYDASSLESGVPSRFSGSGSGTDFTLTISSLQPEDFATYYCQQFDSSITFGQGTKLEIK
assayValue: 68.7 % of WT
//
binder: Refmab #4 (antibody, human IgG1, V domains shown, Tested in IgG format; human IgG1 Fc silent (PG-LALA)) VH: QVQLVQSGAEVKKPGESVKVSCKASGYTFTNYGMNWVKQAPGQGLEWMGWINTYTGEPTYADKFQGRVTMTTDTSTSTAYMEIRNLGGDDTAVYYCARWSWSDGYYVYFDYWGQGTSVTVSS VL: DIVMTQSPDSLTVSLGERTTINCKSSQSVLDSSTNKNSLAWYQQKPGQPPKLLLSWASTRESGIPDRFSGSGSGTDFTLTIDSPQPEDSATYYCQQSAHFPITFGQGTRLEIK
assayValue: 0.3 % of WT
//
binder: Refmab #1 (antibody, human IgG1, V domains shown, Tested in IgG format; human IgG1 (Absolute Antibody hP67.6, Cat. No. Ab00283-10.0); also called hP67.6) VH: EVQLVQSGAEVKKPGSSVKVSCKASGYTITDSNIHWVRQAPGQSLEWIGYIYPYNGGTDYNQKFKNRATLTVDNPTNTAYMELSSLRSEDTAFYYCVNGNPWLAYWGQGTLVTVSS VL: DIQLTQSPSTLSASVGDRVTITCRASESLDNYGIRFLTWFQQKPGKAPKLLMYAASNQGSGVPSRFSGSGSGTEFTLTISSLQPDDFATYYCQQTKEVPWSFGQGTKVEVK
assayValue: 94.6 % of WT

Data credit: patent US20260242735A1
